Please go through the items and note down their inhibition.
# tgt: Beta-secretase 1 (Homo sapiens, UniProt P56817)
# Sequence (P56817 whole entry): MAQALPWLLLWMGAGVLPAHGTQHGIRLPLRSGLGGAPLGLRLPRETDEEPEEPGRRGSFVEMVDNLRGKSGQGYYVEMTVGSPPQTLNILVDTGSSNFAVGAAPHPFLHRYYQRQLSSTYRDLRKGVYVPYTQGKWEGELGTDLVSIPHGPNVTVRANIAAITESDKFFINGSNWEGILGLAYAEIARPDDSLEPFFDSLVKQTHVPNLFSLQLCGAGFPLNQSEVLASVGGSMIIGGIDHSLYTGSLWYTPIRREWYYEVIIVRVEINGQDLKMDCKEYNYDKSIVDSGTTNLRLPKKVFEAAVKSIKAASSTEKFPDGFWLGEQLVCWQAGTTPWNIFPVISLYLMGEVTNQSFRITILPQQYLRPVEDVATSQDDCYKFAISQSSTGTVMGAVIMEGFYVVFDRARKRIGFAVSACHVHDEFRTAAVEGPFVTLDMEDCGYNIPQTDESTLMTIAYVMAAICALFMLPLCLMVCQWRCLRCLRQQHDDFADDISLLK
# protocol.details: Inhibition of human recombinant BACE1 at 0.2 uM by FRET assay

Requested read-out: inhibition. Entry: O=C(N[C@@H](Cc1ccccc1)[C@H](O)C(=O)Nc1cccc(-c2nn[nH]n2)c1)c1cc(=O)cc(C(=O)N2COC[C@@H]2c2ccccc2)o1
78%

How about this compound: CS(=O)(=O)Oc1cc(C(=O)N[C@@H](Cc2ccccc2)[C@H](O)C(=O)Nc2cccc(-c3nn[nH]n3)c2)nc(C(=O)N2COC[C@@H]2c2ccccc2)c1
73%

How about this compound: O=C(N[C@@H](Cc1ccccc1)[C@H](O)C(=O)Nc1cccc(-c2nn[nH]n2)c1)c1cc(=O)cc(C(=O)N2COC[C@@H]2c2ccccc2)[nH]1
36%

How about this compound: O=C(N[C@@H](Cc1ccccc1)[C@H](O)C(=O)Nc1cccc(-c2nn[nH]n2)c1)c1cccc(C(=O)N2COC[C@@H]2c2ccccc2)n1
63%

###

# tgt: Beta-secretase 1 (Homo sapiens, UniProt P56817)
quantity.kind: IC50
Kindly write the number and append the unit.

Requested read-out: IC50. Entry: O=C(N[C@@H](Cc1ccccc1)[C@H](O)C(=O)Nc1cccc(-c2nnn[nH]2)c1)c1cccc(C(=O)N2COC[C@@H]2c2ccccc2)n1
140 nM

Values from ChEMBL document CHEMBL1141518
